Assay: blockers of mitochondrial fusion, WT vs mutant – cell-based, chemical genetic, wild-type and mutant, confirmation (AID 1361)
Conditions: Cell-based mitochondrial fusion phenotype, imaging, WT cells
The source made the active and inactive calls. The rule behind the calls is not given here.
Field 'call' accepts YES (active), NO (inactive)

Sample answers from the record:
INSERT INTO assay_data (compound, class) VALUES
  ('CC(C)N1C(=S)SC(C)(C)C1n1oc(=O)n(-c2ccc(Cl)c(Cl)c2)c1=O (stereo not drawn)', 'NO'),
  ('O=C(N/C=N/OCc1ccc(Cl)cc1Cl)NOCc1ncc(C(F)(F)F)cc1Cl', 'YES');

Would you kindly look at the next entry?
IN: Just curious, what result did CCOc1ccccc1NC(=O)NC(=O)N(C)S(=O)(=O)c1ccc(C)cc1 get here?
OUT: NO

Entry source: PubChem BioAssay AID1361
